Listing: pIC50 of selected compounds
target: Vitamin D3 receptor (Homo sapiens, UniProt P11473); assay: Displacement of [3H]-1,25D3 from C-terminal GST-tagged human recombinant VDR LBD expressed in Escherichia coli BL21 (DE3) after 16 hrs by radioligand binding assay
Sequence (P11473 whole entry, the tested form may be a part): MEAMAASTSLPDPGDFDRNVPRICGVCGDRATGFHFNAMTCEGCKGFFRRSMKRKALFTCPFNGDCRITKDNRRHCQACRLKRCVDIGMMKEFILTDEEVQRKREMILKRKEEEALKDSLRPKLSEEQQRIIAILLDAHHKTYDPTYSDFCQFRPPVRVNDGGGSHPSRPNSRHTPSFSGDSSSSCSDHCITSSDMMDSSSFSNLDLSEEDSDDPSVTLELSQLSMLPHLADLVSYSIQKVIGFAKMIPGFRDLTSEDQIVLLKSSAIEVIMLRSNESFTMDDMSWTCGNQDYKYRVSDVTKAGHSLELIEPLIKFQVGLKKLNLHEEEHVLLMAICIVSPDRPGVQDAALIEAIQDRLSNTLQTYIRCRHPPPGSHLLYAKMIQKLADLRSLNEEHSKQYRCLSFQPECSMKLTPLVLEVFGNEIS
The read-out pIC50 is expressed as -log10 of concentration in moles per litre.

Please review the entries below; each comes with its answer.
C=CC(=O)CC[C@@H](C)[C@H]1CC[C@H]2/C(=C/C=C3C[C@@H](O)C(=C)[C@H](O)C3)CCC[C@]12C: 8.96
C=C1[C@H](O)CC(=C/C=C2\CCC[C@]3(C)[C@@H]([C@H](C)C(=O)/C=C/C=C/C)CC[C@@H]23)C[C@H]1O: 8.64

Please examine the following record next.
// C=C1[C@H](O)CC(=C/C=C2\CCC[C@]3(C)[C@@H]([C@H](C)CCC(=O)/C=C/C)CC[C@@H]23)C[C@H]1O : pIC50 value = 8.74
